FYI, the data here is from PubChem BioAssay.

- Experiment: HDN33 neuroblastoma growth inhibition, cell-based, chromothripsis tumors, cisplatin or BGB combos (AID 1671450);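 further: cells exposed to compound for four days; 0% = vehicle DMSO and 100% = cell killing by high DMSO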
- Setup Conditions: HDN33 neuroblastoma cells, single agent, at 5 µM, stronger effect = higher value
Metric: inhibition (%)
Just the number in %, nothing appended.

Challenge: What measured inhibition goes with O=c1cc(-c2cccc3c2Sc2ccccc2S3)oc(N2CCOCC2)c1 ?
Response given: -26.1

====

- Experiment: suppressors of polyQ aggregation in yeast, 75Q-TubU reporter (AID 1593)
- Setup Conditions: Yeast 75Q polyglutamine aggregation reporter
The label depends only on score: y if it is at least 1, n if it is smaller.

Answered cases to consult:
{"columns": ["Molecule", "Label Value"],
 "data": [
  ["CC(=O)OCC(=O)[C@@]1(O)CCC2C3CCC4=CC(=O)CC[C@]4(C)C3C(=O)C[C@@]21C (some centres undefined)", "y"],
  ["OC(c1cc(C(F)(F)F)nc2c(C(F)(F)F)cccc12)C1CCCCN1 (centres undefined)", "y"],
  ["CCCCCCCCCCCCC[N+](C)(C)Cc1ccccc1", "n"],
  ["Cc1c(C)c2c(c(C)c1O)CCC(C)(CCCC(C)CCCC(C)CCCC(C)C)O2 (centres undefined)", "n"],
  ["CC1(C)O[C@@H]2CC3C4C[C@H](F)C5=CC(=O)C=CC5(C)C4C(O)CC3(C)[C@]2(C(=O)CO)O1 (some centres undefined)", "y"],
  ["CC[C@H]1CN2CCc3cc(OC)c(OC)cc3C2C[C@@H]1CC1NCCc2cc(OC)c(OC)cc21 (some centres undefined)", "y"],
  ["C[C@]12CCC(=O)C=C1CCC1C2[C@@H](O)C[C@@]2(C)C1CC[C@]2(O)C(=O)CO (some centres undefined)", "y"],
  ["CN1C2CC(OC(=O)[C@H](CO)c3ccccc3)C[C@H]1[C@H]1OC21 (some centres undefined)", "y"]
]}

Challenge: Reported score reaches at least 1 for C#C[C@]1(OC(C)=O)CCC2C3CCC4=CC(=O)CC[C@@H]4C3CC[C@@]21C (some centres undefined) ?
Response given: n
